Tested on: Monocotyledonous and dicotyledonous test plants
Assay: Herbicidal action before emergence of the plants (pre-emergence action)
Format: in vivo
Conditions: Cyperus; 2000 g/ha; evaluated after 3 weeks; nine-step scale
Recorded Metric: pre-emergence action, Cyperus
Output: the number by itself.

Any idea what its pre-emergence action, Cyperus is? The compound is CCN(CC)CC.Cc1nc(C(F)(F)F)ccc1C(=O)C1=C(O)CCCC1=O [Compound A2-B1100]
1

GET /values?readout=pre-emergence action, Cyperus&item= CCN(CC)CC.COCc1nc(C(F)(F)F)ccc1C(=O)C1=C(O)CC(C)CC1=O (stereo not shown) [Compound A8-B1101]
2

# input compound: Cc1nc(C(F)(F)F)ccc1C(=O)C1=C(O)C(C)(S(C)(=O)=O)CCC1=O (stereo not shown) [Compound A2-B31] ; wanted: its pre-emergence action, Cyperus
2

Using the record for Cc1nc(C(F)(F)F)ccc1C(=O)C1=C(O)C(C)(C)OC(C)(C)C1=O [Compound A2-B618] , report its pre-emergence action, Cyperus.
1

###

Tested on: Monocotyledonous and dicotyledonous test plants
Test: Herbicidal action before emergence of the plants (pre-emergence action)
Format: in vivo
Conditions: Cyperus; 2000 g/ha; evaluated after 3 weeks; nine-step scale
For each of the compounds below, state its pre-emergence action, Cyperus.
// keep it numeric: no unit symbol after the value

Find the recorded pre-emergence action, Cyperus belonging to COC(=O)C1(C)CCC(=O)C(C(=O)c2ccc(C(F)(F)F)nc2C)=C1O (stereo not drawn) and report it.
1

Give the measured pre-emergence action, Cyperus of CSC1(C)CC(C)C(=O)C(C(=O)c2ccc(C(F)(F)F)nc2C)=C1O (stereo not drawn) .
3

Need pre-emergence action, Cyperus, item `CC1(C)CCC(=O)C(C(=O)c2ccc(C(F)(F)F)nc2C(F)F)=C1O`
1

Consider the compound shown here: COC1CC(C)C(=O)C(C(=O)c2ccc(C(F)(F)F)nc2C)=C1O (stereo not drawn) What is its recorded pre-emergence action, Cyperus?
2

Which pre-emergence action, Cyperus is listed for `Cc1nc(C(F)(F)F)ccc1C(=O)C1=C(O)C(C)(C)CCC1=O` ?
1

Look up pre-emergence action, Cyperus: Cc1nc(C(F)(F)F)ccc1C(=O)C1=C(O)C(C)(C)CC(C)C1=O (stereo not drawn)
1

Dear colleague, I am looking for the recorded pre-emergence action, Cyperus of the following compound: CCC1(C)CC(C)C(=O)C(C(=O)c2ccc(C(F)(F)F)nc2C)=C1O (stereo not drawn)
1

Given Cc1nc(C(F)(F)F)ccc1C(=O)C1=C(O)CC(C(C)C)CC1=O (stereo not drawn) , state its recorded pre-emergence action, Cyperus.
3

What value of pre-emergence action, Cyperus has been reported for the following compound? Cc1nc(C(F)(F)F)ccc1C(=O)C1=C(O)C(C)(S(C)(=O)=O)C2CC2C1=O (stereo not drawn)
3

Can you share its pre-emergence action, Cyperus? I mean this compound: `Cc1nc(C(F)(F)F)ccc1C(=O)C1=C(O)CC(C)(C)CC1=O`
1

May I ask what pre-emergence action, Cyperus has been recorded for Cc1nc(C(F)(F)F)ccc1C(=O)C1=C(O)CC(C)CC1=O (stereo not drawn) ?
1

Find the recorded pre-emergence action, Cyperus belonging to `COCc1nc(C(F)(F)F)ccc1C(=O)C1=C(O)C(C)(C)CCC1=O` and report it.
1

###

System: Monocotyledonous and dicotyledonous test plants
Assay: Herbicidal action before emergence of the plants (pre-emergence action)
Type: in vivo
Conditions: Ipomoea; 2000 g/ha; evaluated after 3 weeks; nine-step scale
For each record, write down the corresponding pre-emergence action, Ipomoea.
Could you respond with only the numeric value?

Quick one: pre-emergence action, Ipomoea of COC1CC(C)C(=O)C(C(=O)c2ccc(C(F)(F)F)nc2C)=C1O (stereo not shown) [Compound A2-B1070] ?
3

Reported pre-emergence action, Ipomoea for Cc1nc(C(F)(F)C(F)(F)F)ccc1C(=O)C1=C(O)CCCC1=O [Compound A34-B1] : what is it?
2

Look up pre-emergence action, Ipomoea: COCCc1nc(C(F)(F)F)ccc1C(=O)C1=C(O)CCCC1=O [Compound A9-B1]
1

Return reported pre-emergence action, Ipomoea; argument: COCc1nc(C(F)(F)F)ccc1C(=O)C1=C(O)CC(C(F)(F)F)CC1=O (stereo not shown) [Compound A8-B1064]
4

Record request: pre-emergence action, Ipomoea value, item Cc1nc(C(F)(F)F)ccc1C(=O)C1=C(O)C(C)(C)CC(C)C1=O (stereo not shown) [Compound A2-B68]
2

Given COC(=O)C1(OC)CCC(=O)C(C(=O)c2ccc(C(F)(F)F)nc2C)=C1O (stereo not shown) [Compound A2-B1067] , state its recorded pre-emergence action, Ipomoea.
3

Query: pre-emergence action, Ipomoea; subject: Cc1nc(C(F)(F)F)ccc1C(=O)C1=C(O)C(C)(C)CCC1=O [Compound A2-B24]
1

###

System: Monocotyledonous and dicotyledonous test plants
Experiment: Post-emergence herbicidal action
Type: in vivo
Conditions: Panicum; 250 g/ha; sprayed at 4- to 6-leaf stage; evaluated after approximately 18 days
Description: […]
Recorded Metric: Post-emergence action: Panicum (score, nine-step scale)
Reply with the value as a number alone.

Form: Entry = CCOC(=O)C1C(O)=C(C(=O)c2ccc(C(F)(F)F)nc2C)C(=O)CC1C (stereo not drawn) | System = Monocotyledonous and dicotyledonous test plants | Post-emergence action: Panicum (score, nine-step scale) = ____
2

Look up Post-emergence action: Panicum (score, nine-step scale) with Monocotyledonous and dicotyledonous test plants for this compound: CCOC(=O)C1(C)C(O)=C(C(=O)c2ccc(C(F)(F)F)nc2COC)C(=O)C2CC21 (stereo not drawn)
3

Recall the recorded Post-emergence action: Panicum (score, nine-step scale) for CCSC1(CC)CC(C)C(=O)C(C(=O)c2ccc(C(F)(F)F)nc2C)=C1O (stereo not drawn) with Monocotyledonous and dicotyledonous test plants and state it.
4

Lab note: need Post-emergence action: Panicum (score, nine-step scale) for COCc1nc(C(F)(F)F)ccc1C(=O)C1=C(O)C(C)C(C)CC1=O (stereo not drawn) on Monocotyledonous and dicotyledonous test plants, anyone have it?
3

// fetch Monocotyledonous and dicotyledonous test plants Post-emergence action: Panicum (score, nine-step scale) for `Cc1c(C(=O)C2=C(O)CCCC2=O)ccc(C(F)(F)F)[n+]1[O-]`
2

What measured Post-emergence action: Panicum (score, nine-step scale) is associated with COC(=O)C1C(O)=C(C(=O)c2ccc(C(F)(F)F)nc2C)C(=O)CC1(C)C (stereo not drawn) on Monocotyledonous and dicotyledonous test plants?
2

###

Kindly supply the reported pre-emergence action, Ipomoea values for the records listed here.
Tested on: Monocotyledonous and dicotyledonous test plants
Assay: Herbicidal action before emergence of the plants (pre-emergence action)
Assay type: in vivo
Settings: Ipomoea; 2000 g/ha; evaluated after 3 weeks; nine-step scale
Write no unit; give the number alone.

Endpoint output: pre-emergence action, Ipomoea of C#CCC1CC(C)(C)C(=O)C(C(=O)c2ccc(C(F)(F)F)nc2C)=C1O (stereo not drawn) . Value?
2

I'd like to know its pre-emergence action, Ipomoea. The molecule in question is COC(=O)C1C(O)=C(C(=O)c2ccc(C(F)(F)F)nc2C)C(=O)CC1C (stereo not drawn)
4

Data request, read-out pre-emergence action, Ipomoea, for COC(=O)C1(C)CCC(=O)C(C(=O)c2ccc(C(F)(F)F)nc2C)=C1O (stereo not drawn)
3

May I ask what pre-emergence action, Ipomoea has been recorded for Cc1nc(C(F)(F)F)ccc1C(=O)C1=C(O)C(C)(C(C)C)CC(C)(C)C1=O (stereo not drawn) ?
4

Any idea what pre-emergence action, Ipomoea was measured for Cc1nc(C(F)(F)F)ccc1C(=O)C1=C(O)C(C)(S(C)(=O)=O)CC(C)C1=O (stereo not drawn) ?
3

Given `CC1(C)CCC(=O)C(C(=O)c2ccc(C(F)(F)F)nc2C(F)F)=C1O` , state its recorded pre-emergence action, Ipomoea.
1

###

Test system: Monocotyledonous and dicotyledonous test plants
Test: Herbicidal action before emergence of the plants (pre-emergence action)
Assay type: in vivo
Settings: Ipomoea; 2000 g/ha; evaluated after 3 weeks; nine-step scale
Description: Monocotyledonous and dicotyledonous test plants are sown in standard soil in plastic pots. […] After a test period of 3 weeks, the experiment is evaluated with reference to a nine-step scale (1=complete damage, 9=no effect). […]
Recorded Metric: pre-emergence action, Ipomoea
Answer as a number with no unit attached.

Find the recorded pre-emergence action, Ipomoea belonging to Cc1nc(C(F)(F)F)ccc1C(=O)C1=C(O)CC(C)CC1=O (centres unmarked) and report it.
2

Query: pre-emergence action, Ipomoea; subject: CCC1CC(C)(C)C(=O)C(C(=O)c2ccc(C(F)(F)F)nc2C)=C1O (centres unmarked)
2

Data request, read-out pre-emergence action, Ipomoea, for `Cc1cc(C(=O)C2=C(O)C(C)(C)CCC2=O)c(C)nc1C(F)(F)F`
3

Find the recorded pre-emergence action, Ipomoea belonging to Cc1nc(C(F)(F)F)ccc1C(=O)C1=C(O)CC(C(C)C)CC1=O (centres unmarked) and report it.
3

// returns reported pre-emergence action, Ipomoea for input `Cc1cc(C(=O)C2=C(O)CCCC2=O)c(C)nc1C(F)(F)F`
4

Could you tell me which pre-emergence action, Ipomoea is on file for CCN(CC)CC.COCc1nc(C(F)(F)F)ccc1C(=O)C1=C(O)CC(C)CC1=O (centres unmarked) ?
4

Reported pre-emergence action, Ipomoea for Cc1nc(C(F)(F)F)ccc1C(=O)C1=C(O)C(C)CC(C)C1=O (stereo not drawn) [A2-B46 (trans)] : what is it?
2

What does the data say about its pre-emergence action, Ipomoea? Entry: COC1(C)CCC(=O)C(C(=O)c2ccc(C(F)(F)F)nc2C)=C1O (centres unmarked)
3

For the compound shown here, Cc1nc(C(F)(F)F)ccc1C(=O)C1=C(O)C(C)C(C)(C)CC1=O (centres unmarked) , give the reported pre-emergence action, Ipomoea.
4

Bench note: what pre-emergence action, Ipomoea did COCc1nc(C(F)(F)F)ccc1C(=O)C1=C(O)C(C)(C(=O)OC)CCC1=O (centres unmarked) show?
3

Requested read-out: pre-emergence action, Ipomoea. Entry: `COCc1nc(C(F)(F)F)ccc1C(=O)C1=C(O)C(C)(C)CCC1=O`
2

This collection of values is drawn from patent US6673938B1.
